# tgt: HLA-B*51 (Human)
# experimental.details: competition with 125I-labelled probe peptide, purified HLA, gel filtration
# condition.summary: remark: other sources report otherwise
metric.name: IC50 (µM)

> print(dat)
                                     binder  metric.name  readout.number
1  LPRRGPRLGV (modifications not checked) [peptide 15.0218]         IC50            6.11
